Test system: MS2 coat protein
Experiment: apparent KD of MS2 coat protein; designed switch direction (-1 OFF switch, 1 ON switch): -1; higher = weaker reporter binding
Conditions: input ligand: microRNA oligo, concentration not stated
Quick rule: apparent KD of MS2 coat protein of at least 0.04 µM means fulfilled, below that means not fulfilled.

Exam item: Given UUUUUGUAUGAAGGAUAUACUUAACAUGAGGAUCACCCAUGUGGUGUUGUGAGUGAGUGAGUUUAGUAGAAGGUCAAUUAUUUU [JMF's solution 24] (Eterna round: R96, puzzle: Exclusion NG 2) , state whether its apparent KD of MS2 coat protein is at least 0.04 µM.
Marked response: fulfilled

Exam item: Another sequence: AUUAAACAUGUAGGAUAUGCGUGGCGAAGCUAUGCAGAAGGACAUGAGGAUCACCCAUGUAAGAGCGUCUGCGUACAGAUGCAA [Mat - Exclusion NG 1 - Mod of JL - D85] (Eterna round: R96, puzzle: Exclusion NG 1)
Marked response: not fulfilled

Exam item: Another sequence: CCGCUCCGUGUAGGAUAUCGGUGUACCCUGCGCCGAGAAGGACAUGAGGAUCACCCAUGUAUGUUAUUAUCACGCGUGGCGCAC [Design 73] (Eterna round: R96, puzzle: Exclusion NG 1)
Marked response: not fulfilled

Exam item: Another sequence: AAUUAUUUUUGAGGAUAUGGUAGUGAAACACUACCAGAAGGCGGAAUAAACAUGAGGAUCACCCAUGUGAGCCUGAUGCUUAUG [Ex NG1 #46] (Eterna round: R96, puzzle: Exclusion NG 1)
Marked response: not fulfilled

Exam item: Another sequence: AAAAAACAUGAGGAUCACCCAUGUAAGGAUAUCUAAAAUAAAAGAAAAAUAAAGAAAAGGAGAAGGUACAAGGA [JL wbt mod 25] (Eterna round: R96, puzzle: Exclusion 1)
Marked response: not fulfilled

###

Assign apparent KD of K4 kissing-loop reporter to each entry below.
Test system: K4 kissing-loop RNA reporter;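 also: bound reporter read as fluorescence of individual clusters on recovered sequencing chips by microscopy, with normalized cluster intensities fitted with a binding model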
Test: apparent KD of K4 kissing-loop reporter; higher = weaker reporter binding
Conditions: Eterna round: R107; input ligand: arginine 13.2 mM
Could you give me the number in nM? Just the number is fine.

Exam item: Quick check: apparent KD of K4 kissing-loop reporter of CUCCAACUUGAUGAUACCAGAGAGGAGGAAGUGAUGUUGACUCCGGCUACAUACUGGCGACUCCCUUGGCAGCAUUACGUCAUCC [theeternabot_sameState_KL_Theo_B_3] ?
Marked response: 265

Exam item: Another sequence: AAUAAGGUCGCCGAUACCAGCGCAGGCAGAGCAAAGCUCUGCCGGGUAGUGAUGUUACCGCGCCCUUGGCAGCGGUGGCACGACC [Omei KL Theo B SS C v1]
Marked response: 435

Exam item: Another sequence: AAUACUAUCAGAAGGAGCGUGGAAUAUUCAUCUGUAUCUAAUACGAGUGAUGUUCGUAAUUCACAGGUAGGUCGCUGAUCAAUAA [whbob_Ex_Arginine_B_2th156]
Marked response: 249

Exam item: Another sequence: GACUCAUGUAGAAGGAGCGUCAGAAGCUACAGACAUGAGUGAUGUUCAUGUUAGUUGAUUUGACAGGUAGGUCGCUACAGCAGGA [KL-SSArg B15 #analogue]
Marked response: 207

Exam item: Another sequence: AUUGCACCUGCGGCCGCCACUCACUCCGGGCUGCUGGCCAGUGAUGUUGGUACGGCUGCCGGUUAGAGGACCGGGCAGGAGCUAA [Esage]
Marked response: 113

Exam item: Another sequence: GUGGAAUUAUGAAAGUGGUUUUAUUAGGAAGGAGCGGCCGAAAGGCCAGGUAGGUCGCCUAUUGACAGUGAUGUUGUUAUAUGGU [#14]
Marked response: 199

Entry source: the supplement of paper PMC9170038
